Please respond with reported IC50 (neutralization) for every item in the list.
TESTED_SYSTEM: HIV-1 Env of isolate MGRM-D-026 (subtype D) (HIV-1)
EXPERIMENT_SUMMARY: cell-based or functional assay

BINDER	IC50 (neutralization)
PGT-123 (antibody, V domains shown) VH: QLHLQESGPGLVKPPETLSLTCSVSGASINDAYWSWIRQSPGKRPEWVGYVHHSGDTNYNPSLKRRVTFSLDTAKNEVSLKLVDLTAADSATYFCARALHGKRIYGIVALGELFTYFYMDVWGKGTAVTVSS VL: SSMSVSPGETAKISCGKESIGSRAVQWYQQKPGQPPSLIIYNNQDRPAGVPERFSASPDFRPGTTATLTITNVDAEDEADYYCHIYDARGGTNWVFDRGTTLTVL	> 50 µg/mL

Let us examine a further case.
Ask | Report IC50 (neutralization) for PGT-127 (antibody, V domains shown) VH: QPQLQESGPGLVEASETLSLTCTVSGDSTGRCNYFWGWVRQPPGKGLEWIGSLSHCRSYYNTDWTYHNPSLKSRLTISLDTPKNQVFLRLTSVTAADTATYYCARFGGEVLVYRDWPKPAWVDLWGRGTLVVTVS VL: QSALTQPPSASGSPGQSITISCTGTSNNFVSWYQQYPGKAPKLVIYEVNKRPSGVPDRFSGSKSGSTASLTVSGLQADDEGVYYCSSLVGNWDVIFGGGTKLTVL
Reply | > 50 µg/mL
